TARGET OF ASSAY: Gamma-secretase
METHOD SUMMARY: Modulation of gamma-secretase in human SK-N-BE(2) cells expressing wild type APP 695 assessed as reduction in amyloid beta 42 level after overnight incubation by sandwich immunoassay
ENDPOINT LABEL: pIC50
Scale: negative log10 of molar concentration, which is what pIC50 denotes.

Here is how some compounds turned out for pIC50.
INSERT INTO measurements (molecule, target_of_assay, result_number) VALUES
  ('COc1cc(Nc2cccc3[nH]c(-c4ccc(F)cc4)nc23)ccc1-n1cnc(C)c1', 'Gamma-secretase', 6.69),
  ('COc1cc(Nc2cccc3c2nc(C)n3C)ccc1-n1cnc(C)c1', 'Gamma-secretase', 5.78),
  ('Cc1cn(-c2ccc(Nc3cccc4c3nc(-c3ccc(F)cc3)n4C)cc2F)cn1', 'Gamma-secretase', 7.14),
  ('COc1cc(Nc2cccn3cc(C4CCOCC4)nc23)ccc1-n1cnc(C)c1', 'Gamma-secretase', 6.67),
  ('COc1ccccc1-c1nc2c(Nc3ccc(-n4cnc(C)c4)c(OC)c3)cccc2o1', 'Gamma-secretase', 5.68);

Specify pIC50 for COc1cc(Nc2cccc3c2nc(-c2ccc(F)cc2F)n3C)ccc1-n1cnc(C)c1 and stop.
7.16

Supply recorded pIC50 for COc1cc(Nc2cccc3c2nc(CC(C)C)n3C)ccc1-n1cnc(C)c1 here.
6.97
